system: Ralstonia solanacearum; assay: Antibacterial activity against Ralstonia solanacearum after 12 to 16 hrs by plate reader analysis; assay type: functional
Field 'label' (enum: satisfied / not satisfied). Set to satisfied when MIC is strictly under 20 µg/mL; else not satisfied.

{"Compound": "Cc1cccc(C[n+]2ccc3c4ccccc4n4c(=O)ccc2c34)c1.[Cl-]", "Assayed System": "Ralstonia solanacearum", "Answer Label": "satisfied"}

Enquiry: Hello, is MIC of the following compound strictly smaller than 20 µg/mL? CC(C)C[n+]1ccc2c3ccccc3n3c(=O)ccc1c23.[I-]
Return: not satisfied

Enquiry: Hello, is MIC of the following compound strictly smaller than 20 µg/mL? CC[n+]1ccc2c3ccccc3n3c(=O)ccc1c23.[I-]
Return: not satisfied

* * *

system: Ralstonia solanacearum; assay: Antibacterial activity against Ralstonia solanacearum after 12 to 16 hrs by plate reader analysis; format: functional
Recorded Metric: MIC (µg/mL)
A number alone suffices; assume µg/mL.

Below, each entry is followed by its recorded MIC result.
{"Compound": "O=c1ccc2nccc3c4ccccc4n1c23 [CANTHIN-6-ONE]", "Unit Annotation": "µg/mL", "MIC": 7.81}
{"Compound": "O=c1ccc2c3c(cc[n+]2Cc2ccc(F)cc2F)c2ccccc2n13.[Cl-]", "Unit Annotation": "µg/mL", "MIC": 31.2}
{"Compound": "O=c1ccc2c3c(cc[n+]2Cc2c(F)cccc2F)c2ccccc2n13.[Cl-]", "Unit Annotation": "µg/mL", "MIC": 15.6}
{"Compound": "O=c1ccc2c3c(cc[n+]2Cc2ccc(F)cc2)c2ccccc2n13.[Cl-]", "Unit Annotation": "µg/mL", "MIC": 31.2}
{"Compound": "CCCC[n+]1ccc2c3ccccc3n3c(=O)ccc1c23.[I-]", "Unit Annotation": "µg/mL", "MIC": 62.5}
{"Compound": "O=C1CCc2nccc3c4ccccc4n1c23", "Unit Annotation": "µg/mL", "MIC": 15.6}
{"Compound": "O=c1ccc2c3c(cc[n+]2[O-])c2ccccc2n13", "Unit Annotation": "µg/mL", "MIC": 15.6}

Switching to the query record.
Enquiry: State its MIC on Ralstonia solanacearum: O=c1ccc2c3c(cc[n+]2Cc2ccccc2)c2ccccc2n13.[Br-]
Return: 3.91

* * *

test system: Ralstonia solanacearum; test: Antibacterial activity against Ralstonia solanacearum after 12 to 16 hrs by plate reader analysis; format: functional
Recorded Metric: MIC (µg/mL)
A number alone suffices; assume µg/mL.

Below, each entry is followed by its recorded MIC result.
{"Compound": "CCCCCCCC[n+]1ccc2c3ccccc3n3c(=O)ccc1c23.[Br-]", "Recorded Metric": "MIC", "Data Value": 31.2}
{"Compound": "O=c1ccc2c3c(cc[n+]2Cc2ccccc2F)c2ccccc2n13.[Cl-]", "Recorded Metric": "MIC", "Data Value": 15.6}
{"Compound": "Cc1ccccc1C[n+]1ccc2c3ccccc3n3c(=O)ccc1c23.[Cl-]", "Recorded Metric": "MIC", "Data Value": 7.81}
{"Compound": "O=c1ccc2c3c(cc[n+]2Cc2ccc(C(F)(F)F)cc2)c2ccccc2n13.[Cl-]", "Recorded Metric": "MIC", "Data Value": 15.6}
{"Compound": "C[C@@H]1O[C@@H]1P(=O)([O-])[O-].[Na+].[Na+] [PHOSPHOMYCIN DISODIUM]", "Recorded Metric": "MIC", "Data Value": 1.95}
{"Compound": "O=c1ccc2c3c(cc[n+]2Cc2ccc(Cl)cc2)c2ccccc2n13.[Cl-]", "Recorded Metric": "MIC", "Data Value": 15.6}
{"Compound": "Cc1ccc(C[n+]2ccc3c4ccccc4n4c(=O)ccc2c34)cc1.[Cl-]", "Recorded Metric": "MIC", "Data Value": 31.2}
{"Compound": "O=c1ccc2c3c(cc[n+]2Cc2ccccc2)c2ccccc2n13.[Cl-]", "Recorded Metric": "MIC", "Data Value": 3.91}
{"Compound": "C=CC[n+]1ccc2c3ccccc3n3c(=O)ccc1c23.[Br-]", "Recorded Metric": "MIC", "Data Value": 62.5}
{"Compound": "O=c1ccc2c3c(cc[n+]2Cc2ccc(CBr)cc2)c2ccccc2n13.[Br-]", "Recorded Metric": "MIC", "Data Value": 31.2}

Enquiry: What does the record list as MIC for CCCCC[n+]1ccc2c3ccccc3n3c(=O)ccc1c23.[I-] ?
Return: 31.2

Enquiry: What does the record list as MIC for O=c1ccc2c3c(cc[n+]2Cc2ccc(OCc4ccccc4)cc2)c2ccccc2n13.[Cl-] ?
Return: 7.81

Enquiry: What does the record list as MIC for CC1(C)S[C@@H]2[C@H](NC(=O)[C@H](N)c3ccccc3)C(=O)N2[C@H]1C(=O)[O-].[Na+] [AMPICILLIN SODIUM] ?
Return: 7.81

* * *

tested on: Ralstonia solanacearum; assay: Antibacterial activity against Ralstonia solanacearum after 12 to 16 hrs by plate reader analysis; type: functional
MIC for assorted compounds

{"Chemical Structure": "C[n+]1ccc2c3ccccc3n3c(=O)ccc1c23.[I-]", "Data Value": "> 125 µg/mL"}
{"Chemical Structure": "CC(C)[n+]1ccc2c3ccccc3n3c(=O)ccc1c23.[I-]", "Data Value": "> 125 µg/mL"}

Switching to the query record.
Enquiry: What does the record list as MIC for CCC[n+]1ccc2c3ccccc3n3c(=O)ccc1c23.[I-] ?
Return: > 125 µg/mL

Data credit: ChEMBL document CHEMBL3745648
